Tested on: MS2 coat protein
Assay: apparent KD of MS2 coat protein, switch OFF state (with FMN for OFF switches, without FMN for ON switches); designed switch direction (-1 OFF switch, 1 ON switch): 1; higher = weaker reporter binding
Settings: FMN input: 0 or 200 uM; Eterna round: R93 (includes R88 designs)
REPORTED_PROPERTY: apparent KD of MS2 coat protein (nM)

- AUAAAACAUGAGGAUCACCCAUGUAGCUAAAGCACAGGAUAUAGGAGUCCGAGCAGACAUCUAGAAGGGUGGAAAA [Veeslelein]: 88.6
- GCGGUGUAGGUACAGGAUAUGUUGCUCGUAACAUGAGGAUCACCCAUGUACCUAUGAGAUUAAAUGCAGAAGGGUGCACACCACG [Zaalaes]: 2.41
- GUGGACAUAGUUCAGGAUAUAUGAAUAGUCACAUGAGGAUCACCCAUGUCCAUUUAUAUGGGCACAUAGAAGGGAGGUAGUUAAC [Mat - Same state - Malcolm Mod - D124]: 744
- CGGAGACAUGAGGAUCACCCAUGUGAGAAGAGGCGAGGAUAUCGAAAGAAAGAAGAGAAACGAGAAGGCGCGAGGG [salish99-SS1-075]: 27.7
- AAUAUAUUAAGUGAGGAUAUCAAAGAAAAAACAUGAGGAUCACCCAUGUGGGAAACCUGGUCGGGUGAGAAGGCACUUAAUAUAU [Samwise Clockwise 28 - Jieux - Same State 2]: 314
- AAGAGACAUGAGGAUCACCCAUGUAGGAUUAUGGGAGGAUAUACAAAGACGAGAGUCAGAGUAGAAGGCCUAGGAU [salish99-ss1-130(!)]: 59.9

----------
System: K4 kissing-loop RNA reporter;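 note: bound reporter read as fluorescence of individual clusters on recovered sequencing chips by microscopy, with normalized cluster intensities fitted with a binding model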
Test: apparent KD of K4 kissing-loop reporter; higher = weaker reporter binding
Conditions: Eterna round: R107; input ligand: theophylline 20 uM
Decision: apparent KD of K4 kissing-loop reporter >= 200 nM yields yes (1), all other cases yield no (0).

* CUCGAGUGAUGUUCGAUUAUUUAUACAGAUACCAGUGAAUUUUAACACCCUUGGCAGCUGGUUGUAUCUUUGUUUUUUACACAAG [JR_ExcTheophyA_Sub006] | no (0)
* GGUGUUGUUUGUGCCGUCUUCCUCGUUCCUCGAGGACCGGUACGGCCGCCACUCGAGUGAUGUUUGGGUAGCGAUCCCUGUUAGU [Bdazzled - #10 Exc. Tryptophan A] | yes (1)
* CAAUGAGUAUAAGAUGAUAUCAUCACAGAAGGAGCGAGUGAUAACUCAGGUAGGUCGCUGAAUUUAUCGAGUGAUGUUCGAUAGA [whbob_SS_Arginine_A_sa118] | no (0)
* AACCACUCGUUACAUCACUAUCGAGUGGAACGAGGACCGGUACGGCCGCCACUCGAUUAGAUGCAGUGAUGUUGCAUCUUAGAAU [KL-SSTryp-A (BrourdMod)3 #dotplot2 strengthened] | no (0)
* AUGUUGAGCGGAAGGAGCGGCUGAGCCAGUGAUGUUGGUUAAUCCAAGUGAUGUUGGAAAAGCCAGGUAGGUCGCCGUUUUACGU [whbob_SS_Arginine_B_2t145] | yes (1)
* UGACUGGACUGAAGGAGCGAGGACGGUCAUAGACCGAAUUCAGUGAUGUUGAAAAUAAAACCUCAGGUAGGUCGCAGUCUAGUCU [ArgBS 3 #SwitchBubble #StaticStem] | yes (1)
* AUUUUUUUGUCAGGAUAUUAGUGUGCGUUUGGUUUGUUAGUGAUGUUGAUAUUUUGUUUAUGUAUUUAAGAAGGGAUUUAGCGGU [aaeatemullin] | yes (1)
* GUGCAGUGAUGUUGCACGAGGAAAGACGAUACCAGCCGCAAAUGUGGCCCUUGGCAGCGUGGGCUAGCACAAAAUAUGCUAGUCU [Ricegeusat] | no (0)
* GCAGUCAAUCGACCACGAAAGUGGAUGGAUACCAGCCCGAAACCGGGCCCUUGGCAGCCAGUGAUGUUGGAAGACUGCUUUAAAA [#SwitchBubble 14 #K4Late] | yes (1)
* GAUCUAUGUCCCGAUACCAGCUCAGAAGCUAGGGAGUGAUGUUCUCGGAGGUUAUCACUGAGCCCUUGGCAGCGGAACGUGACGA [theeternabot_sameState_KL_Theo_B_26] | yes (1)
* GUGCAGUGAUGUUGCACGAGGAAAGACGAUACCAGCCGUAAAUAAGGCCCUUGGCAGCGUAGGCUAGCAUAAGGUAUGCUAGUCC [Atesermace] | no (0)
* GGUAUCCAGUACCAUUGCGUUAAAACAGAAGGAGCGAGUAUGGACUCAGGUAGGUCGCUGUUUAUAGUCGAGUGAUGUUCGAAUC [Same State Arginine A GF 15] | yes (1)
* AUUUGUUUAUGUGAUACCAGACUUUGCAGUGAUGUUGCAUUUAUUUUAGAAUAUAAUUUAGUCCCUUGGCAGCACUAUGUAUUUA [JR_SSTheophyB_Sub008] | no (0)
* ACAUCGGUUGAGAGUGAUGUUCCUUGUGUUCGAGGACCGGUACGGCCGCCACUCGGGUAGAAAAUAACAGAUGUGUUUCCUUUUU [BDazzled - #18 SS Tryptophan A] | no (0)
* GGUCCGGGCUCGGCCGCCACUCCCUCGUACCGCAAGGUAUGAUACCGAGUGAUGUUCGGUUGGAGGAGGACCGGGAGCCCGGACC [#2 Exclusion - Tryptophan B Attempt #9 (HarryS)] | no (0)
* UAGAGGAGACUCUAAUUCCUUAAGUCCGAAGGAGCGACCCAAUGGUCAGGUAGGUCGCGGACAAUCCUAGUGAUGUUAGGAUCUG [Arg A SS t5a] | no (0)
* AUCUGGUUGGGCGAUACCAGUUUGGCAUAGUGAUGUUAUGCAACGCUCAGUGCAAGGCCAAACCCUUGGCAGCGCACAUCCUUUC [theeternabot_exclusion_KL_Theo_B_3] | no (0)
* AAGAGAUCGAGAAGGAGCGAGAAAGCUAGUACAUAUGUACUAGCAAAGCAGUGAUGUUGCACUCAGGUAGGUCGCUCGAUCUCAA [AK1 SS Arginine B] | yes (1)
* CGAGUGAUGUUCGAAGAGUUGUUAAGCGAUACCAGCUAGGAAACUGGCCCUUGGCAGCGUAAUAAGUUAAUAAAUAAAUGAUCAC [whbob_Ex_Theo_A_th64] | yes (1)
* UUCAGUGAUGAUGAACACUGUUGUAUAAACUAGGAUAUGCUGAUAAGCAGAAGGAGUGAUGUUCCGUUCAUCAUCAGAAUUAAAU [KL-XFMN-A4] | yes (1)
* UGACUACAUCCUAGUGAUGUUUAGGAUAUGUAGGAUAUGCUGAUAAGCAGAAGGACAGAAGGAAGUGAUGUUCUUAAAGUAGUCU [FmnAX 29 #DoubleAptamer #Double K4 #SwitchBubble #StaticStem] | yes (1)

----------
System: MS2 coat protein
Assay: apparent KD of MS2 coat protein; designed switch direction (-1 OFF switch, 1 ON switch): 1; higher = weaker reporter binding
Conditions: input ligand: microRNA oligo, concentration not stated
REPORTED_PROPERTY: apparent KD of MS2 coat protein

* GCUACCAUUGAAGCCUACAUGAGGAUCACCCAUGUAUGUAGGCAGGAUAUCGAUUGCAAAGCGAUCGAGAAGGGCUUAGGUAGC [Mat - Same State NG 3 - JL Mod - D90] (Eterna round: R96, puzzle: Same State NG 3) | 52.2 nM
* AACAGUCGGCGAGGAUAUGGACAUACGGACUAACCCGUAUGGCUCACAUGAGGAUCACCCAUGUUCUAGAAGGCGCCACUGAAA [Raridi] (Eterna round: R96, puzzle: Same State NG 2) | 43.4 nM
* CCAAUGUACAAUUUAGAUCUACAUGAGGAUCACCCAUGUACAGAGGAUAUCAGCUCGAUUAGAGCUGAGAAGGCUGAAUUAAUU [SSNG3/3-A2] (Eterna round: R96, puzzle: Same State NG 3) | 135 nM
* GGAGCCGGCCUAGGAUAUUUCAUAAUAUUACAUGAGGAUCACCCAUGUAGGCCAGAAGGCCUUGGGAAGAAGGAGGUCGGCUCC [Loop Effect - U26,U28,U29] (Eterna round: R96, puzzle: Same State NG 2) | 30.7 nM
* AAGAAAUCCGCAGGAUAUCCUAAGCCGGACUUAGGAGAAGGGUGGCCACAUGAGGAUCACCCAUGUAAAAGCUGAAUCACAGCC [Vetianeste] (Eterna round: R96, puzzle: Same State NG 1) | 385 nM
* UGUUGUAUUACAGGAUAUCUAUUGUUUUUAUUUAGAGAAGGGUAUUCACAUGAGGAUCACCCAUGUAUAUACGAGGAAGUUGUG [JMF's solution 12] (Eterna round: R96, puzzle: Same State NG 1) | 40.6 nM
* AGUCCAGCCUGAGCUGGACAAAGGCAUGUACAUGAGGAUCACCCAUGUCAUGUACAAGCUUUUUGCUCGUCUUAAUA [Zipper 49 - 1] (Eterna round: R96, puzzle: Sensor for hsa-mir-208a) | 12.6 nM
* GGUAAGAAUUAAGGAUAUCGAGUACAUAUGUUUAACAUGAGGAUCACCCAUGUGGGUUGCGGUAUCGAGAAGGUAAAUUACAAG [Mat - same State NG 2 - JL mod - D62] (Eterna round: R96, puzzle: Same State NG 2) | 35.7 nM
* UGGCUCAGACGAGGAUAUAUGUCUCGAGCUUCGGCUCGAGACAUGAGGAUCACCCAUGUAAUAACAUAGAAGGUGUCUGAGCCU [SSNG2/1-C3] (Eterna round: R96, puzzle: Same State NG 2) | 226 nM
* AAUUAACAUGAGGAUCACCCAUGUCGUAUUAUGGGAGGAUAUACGUGGACCGUAGUCCGCGUAGAAGGCCUAAUUA [Mat - Same State 1 - Mod of JL - D21] (Eterna round: R96, puzzle: Same State 1) | 34.5 nM
* AACAAUCUAUCUGAGGAUAUCAUGAAAAAAACAUGAGGAUCACCCAUGUGCAGGAAAACUGCAUAUGAGAAGGCAGAUAGAUUGC [salish99_SS2_r3_004] (Eterna round: R96, puzzle: Same State 2) | 504 nM
* GCUCGAUGAGCUGUCUACAUGAGGAUCACCCAUGUAGAUGCGGAGGAUAUUUACGUGCUUUAUGUAGAGAAGGCCGUAUCGAGC [SameState NG3 #79] (Eterna round: R96, puzzle: Same State NG 3) | 15.6 nM
* GGAAUAUUUACAGGAUAUGUUUUGUUAAGUCGAGCAGAAGGGUAGAUGUCUUACACGGUUUGUUACAUGAGGAUCACCCAUGUU [SameState NG1 #17] (Eterna round: R96, puzzle: Same State NG 1) | 86.6 nM
* UCGGGCGUACUUGCUGACAUGAGGAUCACCCAUGUGUUUGGGAAGGAUAUGGUUCCGUUUCGGUUCCAGAAGGUCCUGGGUGCU [salish99_SSNG3_r04_314] (Eterna round: R96, puzzle: Same State NG 3) | 254 nM
* GCUCGCGACGCAGGAUAUGGGUGCCUGUACAUGAGGAUCACCCAUGUUAAGGGACGGAAAACGAACCAGAAGGGCGUCACGAGC [Ceusdian] (Eterna round: R96, puzzle: Same State NG 2) | 132 nM
* UAUGAUGCCGUAGGAUAUCUAGGAUAUGGACGAGGAUCACCCGAGCAGCAUCAGCGCACCAGAGGAGAGAAGGACGCUUUGGAA [pwkr ssNG2 2F5 2FMN.22] (Eterna round: R96, puzzle: Same State NG 2) | 658 nM
* UCAAUCAUGUAAGGAUAUGCAGCCGAAACGGCUGCAGAAGGUACUAUAAUUACAUGAGGAUCACCCAUGUUAUAAAAUUUAUAU [Mat - Same State NG 1 - JL mod - D67] (Eterna round: R96, puzzle: Same State NG 1) | 85 nM
* UAACAGUACAAUUUAGAUCUACAUGAGGAUCACCCAUGUACUGAGGAUAUCAGCUCGAUUAGAGCUGAGAAGGCAGAAGAACUA [SSNG3/11-A2] (Eterna round: R96, puzzle: Same State NG 3) | 173 nM
